Please go through the items and note down their IC50.
# tested target: recombinant human aromatase (CYP19) (Homo sapiens)
# Sequence (P11511 whole entry): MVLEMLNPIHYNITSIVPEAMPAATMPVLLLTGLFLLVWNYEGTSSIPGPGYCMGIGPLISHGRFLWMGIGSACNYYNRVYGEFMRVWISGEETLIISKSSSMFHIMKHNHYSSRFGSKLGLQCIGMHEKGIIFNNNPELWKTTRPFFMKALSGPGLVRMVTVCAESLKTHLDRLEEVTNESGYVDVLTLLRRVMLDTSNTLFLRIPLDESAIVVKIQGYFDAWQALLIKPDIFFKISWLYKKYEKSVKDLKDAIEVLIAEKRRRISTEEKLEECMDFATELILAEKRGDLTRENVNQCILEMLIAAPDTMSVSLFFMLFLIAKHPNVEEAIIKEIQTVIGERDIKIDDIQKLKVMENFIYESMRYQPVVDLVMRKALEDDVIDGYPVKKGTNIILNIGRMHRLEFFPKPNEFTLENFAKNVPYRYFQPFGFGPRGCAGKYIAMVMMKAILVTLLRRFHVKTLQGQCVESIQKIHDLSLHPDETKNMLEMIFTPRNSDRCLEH
# experimental details: Aromatase inhibition assay (Gentest kit, CYP19 with DBF fluorometric substrate)
# condition: Aromatase inhibitory activity IC50, Inactive = % inhibition ≤ 50 % at 12.5 µM
One number for each entry, in nM.

1. O=C1C(Cl)=C(Nc2ccc(Nc3ccccc3)cc2)C(=O)c2ccccc21: 1900
2. O=C1C(Cl)=C(Cl)C(=O)c2ccccc21: 500
3. CN(C1=C(Cl)C(=O)c2ccccc2C1=O)c1ccccc1: 500

Here is the next item to consider.
**Query** Which measured IC50 value corresponds to O=C1C(Cl)=C(NCCc2ccccc2)C(=O)c2ccccc21 ?
**Result** 3300
